measurement_target: T1, HLA-A*0201 loaded with the Carcinoembryonic antigen (CEA)-derived … peptide (biotin on the C-terminal biotinylation tag)
T1 construct: Soluble, biotinylated, immobilised on a streptavidin chip
protocol_details: Biacore SPR
measured_endpoint: koff

binder	reported_value
SEQ ID NO 121 (receptor, mutated soluble two domain ILT-2) MHLPKPTLWAEPGSVITMDQPVTLRCQGGQETQEYRLYREKKTAPWITRIPQELVKKGQFPIPSITWEHAGRYRCYYGGQEGARSESSDPLELVVTGVYIKPTLSAQPSPVVNSGGNVTLQCDSQVAFDGFILCKEGEDEHPQCLNSQPHARGSSRAIFSVGPVSPSRRWWYRCYAYDSNSPYEWSLPSDLLELDVDG	≤ 2 s⁻¹
SEQ ID NO 65 (receptor, mutated soluble two domain ILT-2) MGHLPKPTLWAEPGSVITMDQPVTLRCQGGQETQEYRLYREKKTAPWITRIPQELVKKGQFPIPSITWEHAGRYRCYYGSDTSQWSASSDPLELVVTGVYIKPTLSAQPSPVVNSGGNVTLQCDSQVAFDGFILCKEGEDEHPQCLNSQPHARGSSRAIFSVGPVSPSRRWWYRCYAYDSNSPYEWSLPSDLLELLVL	≤ 2 s⁻¹
SEQ ID NO 116 (receptor, mutated soluble two domain ILT-2) MHLPKPTLWAEPGSVITLQSPVTLRCQGGQETQEYRLYREKKTAPWITRIPQELVKKGQFPIPSITWEHAGRYRCYYGSDTSQWSASSDPLELVVTGVYIKPTLSAQPSPVVNSGGNVTLQCDSQVAFDGFILCKEGEDEHPQCLNSQPHARGSSRAIFSVGPVSPSRRWWYRCYAYDSNSPYEWSLPSDLLELDVDG	≤ 2 s⁻¹
SEQ ID NO 123 (receptor, mutated soluble two domain ILT-2; also called Clone 64; c64) MGHLPKPTLWAEPGSVITMDQPVTLRCQGGQETQQYRLYREKKTAPWITRIPQELVKKGQFPIPSITWEHAGRYRCYYGSDTRQWSASSDPLELVVTGVYIKPTLSAQPSPVVNSGGNVTLQCDSQVAFDGFILCKEGEDDHPQCLNSQPHARGSSRAIFSVGPVSPSRRWRYRCYAYDSNSPYEWSLPSDLLELDVDG	≤ 2 s⁻¹
SEQ ID NO 13 (receptor, mutated soluble two domain ILT-2) MAGHLPKPTLWAEPGSVITMDQPVTLRCQGGQETQEYRLYREKKTAPWITRIPQELVKKGQFPIPSITWEHAGRYRCYYGSDTSQWSASSDPLELVVTGVYIKPTLSAQPSPVVNSGGNVTLQCDSQVAFDGFILCKEGEDEHPQCLNSQPHARGSSRAIFSVGPVSPSRRWWYRCYAYPAWTPYEWSLPSDLLELDVDG	≤ 2 s⁻¹
SEQ ID NO 8 (receptor, mutated soluble two domain ILT-2) MAGHLPKPTLWAEPGSVITMDQPVTLRCQGGQETQEYRLYREKKTAPWITRIPQELVKKGQFPIPSITWEHAGRYRCYYGSDTSQWSASSDPLELVVTGVYIKPTLSAQPSPVVNSGGNVTLQCDSQVAFDGFILCKEGEDEHPQCLNSQPHARGSSRAIFSVGPVSPSRRWWYRCYAYVAWAPYEWSLPSDLLELDVDG	≤ 2 s⁻¹
SEQ ID NO 107 (receptor, mutated soluble two domain ILT-2) MGHLPKPTLWAEPGSVITMDQPVTLRCQGGQETQEYRLYREKKTAPWITRIPQELVKKGQFPIPSITWEHAGRYRCIGRSQTSQWSASSDPLELVVTGIYLAPTLSAQPSPVVNSGGNVTLQCDSQVAFDGFILCKEGEDEHPQCLNSQPHARGSSRAIFSVGPVSPSRRWWYRCYAYDSNSPYEWSLPSDLLELLVL	≤ 2 s⁻¹
SEQ ID NO 87 (receptor, mutated soluble two domain ILT-2) MGHLPKPTLWAEPGSVITQGRPVTLRCQGGQETQEYRLYREKKTAPWITRIPQELVKKGQFPIPSITWEHAGRYRCYYGSDTAGRSESSDPLELVVTGVYIKPTLSAQPSPVVNSGGNVTLQCDSQVAFDGFILCKEGEDEHPQCLNSQPHARGSSRAIFSVGPVSPSRRWWYRCYAYDSNSPYEWSLPSDLLELLVL	≤ 2 s⁻¹
SEQ ID NO 120 (receptor, mutated soluble two domain ILT-2) MHLPKPTLWAEPGSVITMDQPVTLRCQGGQETQEYRLYREKKTAPWITRIPQELVKKGQFPIPSITWEHAGRYRCVIQRGTAGRSESSDPLELVVTGVYIKPTLSAQPSPVVNSGGNVTLQCDSQVAFDGFILCKEGEDEHPQCLNSQPHARGSSRAIFSVGPVSPSRRWWYRCYAYDSNSPYEWSLPSDLLELDVDG	≤ 2 s⁻¹
SEQ ID NO 94 (receptor, mutated soluble two domain ILT-2) MGHLPKPTLWAEPGSVITQGSPVTLRCQGGQETQEYRLYREKKTAPWITRIPQELVKKGQFPIPSITWEHAGRYRCYYGGQEGARSESSDPLELVVTGVYIKPTLSAQPSPVVNSGGNVTLQCDSQVAFDGFILCKEGEDEHPQCLNSQPHARGSSRAIFSVGPVSPSRRWWYRCYAYDSNSPYEWSLPSDLLELLVL	≤ 2 s⁻¹
SEQ ID NO 12 (receptor, mutated soluble two domain ILT-2) MAGHLPKPTLWAEPGSVITMDQPVTLRCQGGQETQEYRLYREKKTAPWITRIPQELVKKGQFPIPSITWEHAGRYRCYYGSDTSQWSASSDPLELVVTGVYIKPTLSAQPSPVVNSGGNVTLQCDSQVAFDGFILCKEGEDEHPQCLNSQPHARGSSRAIFSVGPVSPSRRWWYRCYAYVSYWPYEWSLPSDLLELDVDG	≤ 2 s⁻¹
